- target-entity: human GPR17 receptor (Homo sapiens)
- Sequence (Q13304 whole entry): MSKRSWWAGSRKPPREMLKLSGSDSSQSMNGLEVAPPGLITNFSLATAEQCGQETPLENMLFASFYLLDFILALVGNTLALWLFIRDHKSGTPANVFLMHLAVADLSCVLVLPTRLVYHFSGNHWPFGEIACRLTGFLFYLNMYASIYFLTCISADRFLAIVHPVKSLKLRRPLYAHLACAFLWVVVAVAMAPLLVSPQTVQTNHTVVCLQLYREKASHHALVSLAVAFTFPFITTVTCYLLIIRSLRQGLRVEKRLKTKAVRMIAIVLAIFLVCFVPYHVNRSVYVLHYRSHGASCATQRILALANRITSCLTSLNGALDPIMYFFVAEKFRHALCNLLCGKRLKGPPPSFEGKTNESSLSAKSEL
- test-details: Calcium mobilization functional assay (Fluo-8, FLIPR TETRA) in HEK-293 hGPR17 (Gα-q assay)
- experimental-parameters: antagonism of MDL29,951 (~EC80) induced Ca2+ signal; cell line (HEK-293 hGPR17 or HEK-293 Suchi5 hGPR17) not given
pIC50: −log10 of the molar value.
Record form. Attribute: pIC50. Fill in for each entry.

>>> print(df.to_string())
                           structure_smiles                        target_entity  test_readout        result
0  N#CCOc1cnc(NS(=O)(=O)c2c[nH]c(-c3ccccc3)c2)c(F)c1  human GPR17 receptor (Homo sapiens)         pIC50  5.30 to 6.30
1  Cc1[nH]cc(S(=O)(=O)Nc2ccc(C#N)cc2F)c1Cc1ccccc1  human GPR17 receptor (Homo sapiens)         pIC50  4.30 to 5.30
2  N#Cc1ccc(NS(=O)(=O)c2c[nH]c(-c3ccco3)c2)c(F)c1  human GPR17 receptor (Homo sapiens)         pIC50        > 6.30
3  COc1ccc(Cc2c[nH]cc2S(=O)(=O)Nc2ccc(C#N)cc2F)cc1  human GPR17 receptor (Homo sapiens)         pIC50  4.30 to 5.30
4  [2H]c1ccc(-c2cc(S(=O)(=O)Nc3ccc(C#N)cc3F)c[nH]2)cc1  human GPR17 receptor (Homo sapiens)         pIC50        > 6.30
5  N#Cc1ccc(F)c(-c2cc(S(=O)(=O)Nc3cc(F)c(C(F)(F)F)cc3F)c[nH]2)c1  human GPR17 receptor (Homo sapiens)         pIC50        > 6.30
6  N#Cc1cc(F)c(NS(=O)(=O)c2c[nH]c(-c3nccs3)c2)cc1F  human GPR17 receptor (Homo sapiens)         pIC50        > 6.30
7  O=S(=O)(Nc1cc(F)c(Br)cc1F)c1c[nH]c(-c2ccccc2F)c1  human GPR17 receptor (Homo sapiens)         pIC50        > 6.30

Look up pIC50 for the entries below, preserving their order.
1. Cn1ccc(-c2cc(S(=O)(=O)Nc3ccc(C#N)cc3F)c[nH]2)n1
2. N#Cc1ccc(NS(=O)(=O)c2c[nH]c(Cc3ccccn3)c2)c(F)c1
3. COc1csc(-c2cc(S(=O)(=O)Nc3cc(F)c(OC(F)F)cc3F)c[nH]2)n1

Result:
1. 5.30 to 6.30
2. 4.30 to 5.30
3. > 6.30
